- Test: RAD001 PK analysis in blood of NALM6-luc tumor bearing mice
- Type: in vivo, NSG mice
- Particulars: NSG, mouse, whole blood; 24 hours after dosing, 0.3 mg/kg oral daily, day 0 and day 14; read-out: RAD001 concentrations in the blood
Assay metric: concentration at 24 h

Could you please provide reported concentration at 24 h for CO[C@H]1C[C@@H]2CC[C@@H](C)[C@@](O)(O2)C(=O)C(=O)N2CCCC[C@H]2C(=O)O[C@H]([C@H](C)C[C@@H]2CC[C@@H](OCCO)[C@H](OC)C2)CC(=O)[C@H](C)/C=C(\C)[C@@H](O)[C@@H](OC)C(=O)[C@H](C)C[C@H](C)/C=C/C=C/C=C/1C ? Thanks! > 10 nM
